biological target: Melanocortin receptor 4 (Homo sapiens); experiment: Effective concentration for cAMP accumulation mediated by human Melanocortin 4 receptor in HEK293 cells
Sequence (P32245 whole entry): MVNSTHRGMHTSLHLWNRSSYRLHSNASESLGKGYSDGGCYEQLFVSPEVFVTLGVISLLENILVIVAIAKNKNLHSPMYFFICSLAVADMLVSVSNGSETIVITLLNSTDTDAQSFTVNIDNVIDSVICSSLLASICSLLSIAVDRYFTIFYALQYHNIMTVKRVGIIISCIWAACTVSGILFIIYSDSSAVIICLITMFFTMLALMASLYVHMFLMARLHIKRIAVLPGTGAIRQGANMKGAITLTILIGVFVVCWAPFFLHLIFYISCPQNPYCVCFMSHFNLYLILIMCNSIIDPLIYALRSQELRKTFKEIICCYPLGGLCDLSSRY
Lab note: anything with EC50 below 5 nM is marked Yes; values at 5 nM or higher are marked No.

See these solved cases before continuing.
- NC(=O)CNC(=O)[C@H](Cc1c[nH]c2ccccc12)NC(=O)[C@H](CCCN=C(N)N)NC(=O)[C@@H](Cc1ccccc1)NC(=O)[C@H]1CC[C@H](c2ccccc2)CC1: No
- CCCCC(=O)N[C@]1(C(=O)N[C@H](Cc2ccccc2)C(=O)N[C@@H](CCCNC(=N)N)C(=O)N[C@@H](Cc2c[nH]c3ccccc23)C(=O)NCC(N)=O)CC[C@H](c2ccc(Cl)cc2)CC1: Yes
- CCCCC(=O)N[C@]1(C(=O)NC(Cc2ccccc2)C(=O)NC(CCCN=C(N)N)C(=O)N[C@@H](Cc2c[nH]c3ccccc23)C(=O)NCC(N)=O)CC[C@H](c2ccc(OC)cc2)CC1 (single isomer, unassigned): No
- CCCCC(=O)N[C@]1(C(=O)N[C@H](Cc2ccccc2)C(=O)N[C@@H](CCCNC(=N)N)C(=O)N[C@@H](Cc2c[nH]c3ccccc23)C(N)=O)CC[C@H](c2ccccc2)CC1: No
- CCCCC(=O)N[C@@]1(C(=O)N[C@H](Cc2ccccc2)C(=O)N[C@@H](CCCN=C(N)N)C(=O)N[C@@H](Cc2c[nH]c3ccccc23)C(=O)NCC(N)=O)CCc2ccccc2C1: No

Prompt line: Given CCCCC(=O)N[C@]1(C(=O)NC(Cc2ccccc2)C(=O)NC(CCCN=C(N)N)C(=O)N[C@@H](Cc2c[nH]c3ccccc23)C(=O)NCC(N)=O)CC[C@H](c2ccc(C)cc2)CC1 (single isomer, unassigned) , is recorded EC50 strictly lower than 5 nM?
Response line: Yes

Values compiled from ChEMBL document CHEMBL1143484.
